Molecular target: IDO-1 (Homo sapiens (Human))
Sequence (P14902 whole entry): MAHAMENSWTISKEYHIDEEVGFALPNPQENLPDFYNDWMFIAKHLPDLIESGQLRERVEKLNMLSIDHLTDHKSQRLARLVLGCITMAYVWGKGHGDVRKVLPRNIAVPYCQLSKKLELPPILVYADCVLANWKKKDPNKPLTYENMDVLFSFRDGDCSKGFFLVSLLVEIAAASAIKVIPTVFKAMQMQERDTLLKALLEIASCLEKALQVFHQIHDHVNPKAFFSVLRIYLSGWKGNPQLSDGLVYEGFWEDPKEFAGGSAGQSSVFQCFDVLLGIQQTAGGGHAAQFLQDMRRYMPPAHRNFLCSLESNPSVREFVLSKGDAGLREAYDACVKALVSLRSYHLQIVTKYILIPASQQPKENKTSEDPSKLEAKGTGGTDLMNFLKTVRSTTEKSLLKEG
Experiment: Indoleamine-2,3-dioxygenase 1 inhibitory activity (absorbance at 321 nm)
Assay type: biochemical
Details: 20 nM IDO-1, 2 mM D-tryptophan; read-out: IDO-1 inhibitory activity, IC50
pIC50: −log10 of the molar value.
I'd be grateful if you could share measured pIC50 for these entries.

Enquiry: Suppose we examine the compound O=c1c2cccnc2nc2n1-c1ccc(Cl)cc1C2=NO ; what pIC50 value has been reported?
Return: 6.00 to 6.96

Enquiry: Suppose we examine the compound COc1ccc2c(c1)C(=O)c1nc3cnccc3c(=O)n1-2 ; what pIC50 value has been reported?
Return: 5.00 to 5.96

Enquiry: Suppose we examine the compound Cc1ccc2c(c1)C(=O)c1nc3ncccc3c(=O)n1-2 ; what pIC50 value has been reported?
Return: 6.00 to 6.96

Enquiry: Suppose we examine the compound CN(C)CCON=C1c2cc(F)ccc2-n2c1nc1ncccc1c2=O ; what pIC50 value has been reported?
Return: 6.00 to 6.96

Enquiry: Suppose we examine the compound CCON=C1c2cc([N+](=O)[O-])ccc2-n2c1nc1ncccc1c2=O ; what pIC50 value has been reported?
Return: 5.00 to 5.96

Enquiry: Suppose we examine the compound O=C1c2ccccc2-n2c1nc1cnccc1c2=O ; what pIC50 value has been reported?
Return: 6.00 to 6.96

Enquiry: Suppose we examine the compound CN(C)CCON=C1c2cc(Cl)ccc2-n2c1nc1ncccc1c2=O ; what pIC50 value has been reported?
Return: 6.00 to 6.96

Enquiry: Suppose we examine the compound COc1ccc2c(c1)C(=NNC(=S)N(C)C)c1nc3ncccc3c(=O)n1-2 ; what pIC50 value has been reported?
Return: 5.00 to 5.96

Enquiry: Suppose we examine the compound Cc1ccc2c(c1)C(=NO)c1nc3ncccc3c(=O)n1-2 ; what pIC50 value has been reported?
Return: 5.00 to 5.96

Enquiry: Suppose we examine the compound O=C1c2ccccc2-n2c1nc1ncccc1c2=O ; what pIC50 value has been reported?
Return: 6.00 to 6.96

Enquiry: Suppose we examine the compound COc1ccc2c(c1)C(=NO)c1nc3ncccc3c(=O)n1-2 ; what pIC50 value has been reported?
Return: 5.00 to 5.96

Enquiry: Suppose we examine the compound O=C1c2cc(Cl)ccc2-n2c1nc1cnccc1c2=O ; what pIC50 value has been reported?
Return: 6.00 to 6.96

Enquiry: Suppose we examine the compound O=c1c2cccnc2nc2n1-c1ccc([N+](=O)[O-])cc1C2=NOS(=O)(=O)O ; what pIC50 value has been reported?
Return: 6.00 to 6.96

Enquiry: Suppose we examine the compound O=c1c2cccnc2nc2n1-c1ccc([N+](=O)[O-])cc1C2=NOCCO ; what pIC50 value has been reported?
Return: 6.00 to 6.96

Enquiry: Suppose we examine the compound CN(C)CCCON=C1c2cc(Cl)ccc2-n2c1nc1ncccc1c2=O ; what pIC50 value has been reported?
Return: 5.00 to 5.96

Enquiry: Suppose we examine the compound O=c1c2cccnc2nc2n1-c1ccccc1C2=NO ; what pIC50 value has been reported?
Return: 5.00 to 5.96

Enquiry: Suppose we examine the compound COc1ccc2c(c1)C(=O)c1nc3ncccc3c(=O)n1-2 ; what pIC50 value has been reported?
Return: 6.00 to 6.96

Enquiry: Suppose we examine the compound CN(C)CCON=C1c2ccccc2-n2c1nc1ncccc1c2=O ; what pIC50 value has been reported?
Return: 6.00 to 6.96

Enquiry: Suppose we examine the compound O=C1c2cc(F)ccc2-n2c1nc1cnccc1c2=O ; what pIC50 value has been reported?
Return: 6.00 to 6.96

Enquiry: Suppose we examine the compound C=CCON=C1c2cc([N+](=O)[O-])ccc2-n2c1nc1ncccc1c2=O ; what pIC50 value has been reported?
Return: 5.00 to 5.96

Enquiry: Suppose we examine the compound CON=C1c2cc([N+](=O)[O-])ccc2-n2c1nc1ncccc1c2=O ; what pIC50 value has been reported?
Return: 6.00 to 6.96
